settings: 291.15 K; 101.32 kPa; Liquid
endpointLabel: mass density (kg/m3)

The following compounds have reported results that may help.
{"columns": ["compound", "mass density [kg/m3]"],
 "data": [
  ["CCOC=O [ethyl methanoate]", 924.7],
  ["CCCOC=O [propyl methanoate]", 907.8],
  ["CCCCOC=O [butyl methanoate]", 896]
]}

(1) CCCCCC [hexane]
(2) COC=O [methyl methanoate]
Q: Could you determine which record has the numerically smaller mass density? Candidates: 1 and 2 // respond with label for picked entry
Result: 1
(1: 661.2 kg/m3, 2: 976.9 kg/m3)

====

conditions: 298.15 K; 101.32 kPa; Liquid
endpointLabel: mass density (kg/m3)

{"columns": ["compound", "readoutValue"],
 "data": [
  ["CCCCCC", 654.89],
  ["COC=O [methyl methanoate]", 966.54],
  ["CCCOC=O [propyl methanoate]", 899.08],
  ["CCOC=O [ethyl methanoate]", 915.16],
  ["CCCCOC=O [butyl methanoate]", 888.66]
]}

====

assay: refractive index (Na D-line) (dimensionless); settings: 298.15 K; 101.33 kPa; Liquid
endpointLabel: refractive index

{"columns": ["molecule", "readoutValue"],
 "data": [
  ["CCCOC=O [propyl methanoate]", 1.375],
  ["CCCCOC=O [butyl methanoate]", 1.3872],
  ["COC=O [methyl methanoate]", 1.3415],
  ["CCOC=O [ethyl methanoate]", 1.358],
  ["CCCCCC", 1.372]
]}

====

settings: 318.15 K; 101.32 kPa; Liquid
endpointLabel: mass density (kg/m3)

{"columns": ["compound", "endpointLabel", "resultUnits", "readoutValue"],
 "data": [
  ["CCCCOC=O [butyl methanoate]", "mass density", "kg/m3", 867.21],
  ["CCCOC=O [propyl methanoate]", "mass density", "kg/m3", 875.32],
  ["CCCCCC", "mass density", "kg/m3", 636.43],
  ["CCOC=O [ethyl methanoate]", "mass density", "kg/m3", 888.42]
]}

====

assay: refractive index (Na D-line) (dimensionless); details: 318.15 K; 101.33 kPa; Liquid
endpointLabel: refractive index

{"columns": ["compound", "readoutValue"],
 "data": [
  ["CCCCOC=O [butyl methanoate]", 1.3776],
  ["CCOC=O [ethyl methanoate]", 1.3474],
  ["CCCCCC", 1.3618],
  ["CCCOC=O [propyl methanoate]", 1.365]
]}

====

details: 308.15 K; 101.32 kPa; Liquid
endpointLabel: mass density (kg/m3)

{"columns": ["compound", "readoutValue"],
 "data": [
  ["CCCOC=O [propyl methanoate]", 888.36],
  ["CCOC=O [ethyl methanoate]", 902.07],
  ["CCCCCC [hexane]", 646.07],
  ["CCCCOC=O [butyl methanoate]", 878.24]
]}

====

assay: refractive index (Na D-line) (dimensionless); details: 291.15 K; 101.33 kPa; Liquid
endpointLabel: refractive index

{"columns": ["molecule", "refractive index"],
 "data": [
  ["COC=O [methyl methanoate]", 1.3452],
  ["CCCCCC", 1.3765],
  ["CCCCOC=O [butyl methanoate]", 1.3904],
  ["CCOC=O [ethyl methanoate]", 1.3614],
  ["CCCOC=O [propyl methanoate]", 1.3778]
]}

Cited source for all entries: the NIST ThermoML archive (doi:10.1021/je060355j)
